Data provenance: patent US11034679B2

# pEC50 listing for each entry below
target: MOR (Homo sapiens); experiment: cell-based; set-up: host or cells: CHO-K1 OPRM1 β-arrestin-2 cells
Sequence (P35372 whole entry): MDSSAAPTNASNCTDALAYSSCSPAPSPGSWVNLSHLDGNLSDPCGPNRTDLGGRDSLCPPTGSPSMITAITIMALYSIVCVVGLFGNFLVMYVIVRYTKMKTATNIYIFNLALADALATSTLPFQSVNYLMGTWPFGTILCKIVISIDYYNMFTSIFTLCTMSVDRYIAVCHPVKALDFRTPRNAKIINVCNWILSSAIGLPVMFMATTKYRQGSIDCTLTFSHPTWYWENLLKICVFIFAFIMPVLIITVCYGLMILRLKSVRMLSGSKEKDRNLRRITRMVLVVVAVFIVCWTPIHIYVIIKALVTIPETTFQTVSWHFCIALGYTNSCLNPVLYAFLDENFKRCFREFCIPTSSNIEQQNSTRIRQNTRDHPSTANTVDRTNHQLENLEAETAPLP
Sequence (P32121 whole entry partner): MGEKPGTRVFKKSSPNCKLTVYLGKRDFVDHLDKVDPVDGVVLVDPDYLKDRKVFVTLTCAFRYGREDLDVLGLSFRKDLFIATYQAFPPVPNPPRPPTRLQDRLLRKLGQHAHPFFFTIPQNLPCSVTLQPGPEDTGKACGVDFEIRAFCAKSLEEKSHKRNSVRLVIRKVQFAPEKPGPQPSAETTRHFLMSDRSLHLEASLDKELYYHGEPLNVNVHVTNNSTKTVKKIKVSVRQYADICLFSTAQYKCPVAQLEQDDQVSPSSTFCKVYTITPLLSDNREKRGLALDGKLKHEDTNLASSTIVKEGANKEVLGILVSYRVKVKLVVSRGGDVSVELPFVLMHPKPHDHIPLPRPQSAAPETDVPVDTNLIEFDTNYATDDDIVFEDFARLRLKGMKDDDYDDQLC
Quick note: pEC50 means taking -log10 of the concentration in moles per liter.

COCc1ccc(C(=O)OC2=C[C@@H](C(=O)OC)[C@]3(C)CC[C@H]4C(=O)O[C@H](c5ccoc5)C[C@]4(C)[C@H]3C2=O)cc1 [Entry 5]    6.44

pEC50 in this record for COC(=O)[C@@H]1C=C(OC(=O)c2ccc3c(c2)CNC3=O)C(=O)[C@H]2[C@@]1(C)CC[C@H]1C(=O)O[C@H](c3ccoc3)C[C@]21C [Entry 9] : 6.59

pEC50 in this record for COC(=O)[C@@H]1C=C(OC(=O)c2ccc3c(c2)C(=O)NC3)C(=O)[C@H]2[C@@]1(C)CC[C@H]1C(=O)O[C@H](c3ccoc3)C[C@]21C [Entry 8] : 6.72
